Every entry's value here was drawn from patent US9682141B2.

# IC50 measurements, system: PI3K β (Homo sapiens (Human))
# Sequence (P42338 whole entry): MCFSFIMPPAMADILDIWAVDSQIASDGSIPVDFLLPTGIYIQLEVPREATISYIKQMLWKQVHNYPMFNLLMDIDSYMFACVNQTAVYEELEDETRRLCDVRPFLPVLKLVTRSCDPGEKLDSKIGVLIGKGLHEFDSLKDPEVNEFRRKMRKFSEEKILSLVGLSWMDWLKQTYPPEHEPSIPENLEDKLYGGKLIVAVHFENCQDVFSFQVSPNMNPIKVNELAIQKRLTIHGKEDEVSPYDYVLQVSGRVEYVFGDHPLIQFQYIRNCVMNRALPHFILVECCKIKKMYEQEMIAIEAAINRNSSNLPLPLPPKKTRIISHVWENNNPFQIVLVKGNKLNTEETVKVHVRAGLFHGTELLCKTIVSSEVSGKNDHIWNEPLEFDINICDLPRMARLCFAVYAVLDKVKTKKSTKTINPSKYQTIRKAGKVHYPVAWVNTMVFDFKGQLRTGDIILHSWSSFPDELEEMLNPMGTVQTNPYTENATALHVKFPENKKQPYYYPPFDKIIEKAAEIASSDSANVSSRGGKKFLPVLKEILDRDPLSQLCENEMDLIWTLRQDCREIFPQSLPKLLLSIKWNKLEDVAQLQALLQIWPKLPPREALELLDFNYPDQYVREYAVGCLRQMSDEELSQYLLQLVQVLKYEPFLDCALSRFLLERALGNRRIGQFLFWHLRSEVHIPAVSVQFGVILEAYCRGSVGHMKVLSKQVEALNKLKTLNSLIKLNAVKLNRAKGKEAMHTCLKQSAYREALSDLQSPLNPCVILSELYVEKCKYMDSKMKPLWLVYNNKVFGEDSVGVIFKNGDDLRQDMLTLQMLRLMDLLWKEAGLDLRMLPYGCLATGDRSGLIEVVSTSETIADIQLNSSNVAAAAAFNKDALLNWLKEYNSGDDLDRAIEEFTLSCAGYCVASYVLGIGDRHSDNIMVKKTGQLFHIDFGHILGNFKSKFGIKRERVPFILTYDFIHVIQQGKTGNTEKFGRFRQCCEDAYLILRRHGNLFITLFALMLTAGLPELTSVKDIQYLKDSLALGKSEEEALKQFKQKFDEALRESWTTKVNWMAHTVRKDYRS
# Sequence (P27986 whole entry partner): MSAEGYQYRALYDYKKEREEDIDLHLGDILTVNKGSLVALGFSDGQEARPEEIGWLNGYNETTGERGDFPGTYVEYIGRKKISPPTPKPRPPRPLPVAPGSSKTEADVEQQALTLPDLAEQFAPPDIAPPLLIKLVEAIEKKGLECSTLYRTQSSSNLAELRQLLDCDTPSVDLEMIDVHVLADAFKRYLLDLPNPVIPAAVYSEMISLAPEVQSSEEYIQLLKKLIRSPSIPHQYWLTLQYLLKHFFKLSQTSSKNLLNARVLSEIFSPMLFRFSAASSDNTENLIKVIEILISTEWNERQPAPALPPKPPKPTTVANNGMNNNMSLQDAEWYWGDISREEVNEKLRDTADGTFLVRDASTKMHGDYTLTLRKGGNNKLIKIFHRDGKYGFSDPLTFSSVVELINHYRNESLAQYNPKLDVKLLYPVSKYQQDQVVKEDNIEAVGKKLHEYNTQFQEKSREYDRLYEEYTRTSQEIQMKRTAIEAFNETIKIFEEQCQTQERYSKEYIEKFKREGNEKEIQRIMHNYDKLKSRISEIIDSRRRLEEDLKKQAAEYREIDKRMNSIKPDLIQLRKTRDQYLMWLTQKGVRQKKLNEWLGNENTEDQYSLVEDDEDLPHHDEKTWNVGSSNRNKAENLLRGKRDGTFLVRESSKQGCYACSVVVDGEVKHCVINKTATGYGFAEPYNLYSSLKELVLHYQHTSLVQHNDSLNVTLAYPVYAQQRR

Solved entries (count: 2):
compound=CN1CCN([C@H]2CCN(c3cnc4ccc(-c5ccc6oc(N)nc6c5)cc4n3)C2)CC1 data_value="< 1 µM"
compound=Nc1nc2cc(-c3ccc4ncc(N5CCC(N6CCOCC6)CC5)nc4c3)ccc2o1 data_value="< 1 µM"

Input: State its IC50 on PI3K β (Homo sapiens (Human)): Nc1nc2cc(-c3ccc4ncc(N5CCN(C(=O)[C@@H](N)CO)CC5)nc4c3)ccc2o1
Output: < 1 µM

Input: Tell me reported IC50 for O=C(c1cnc2ccc(-c3cnc(Cl)c(NS(=O)(=O)c4cccc(F)c4)c3)cn12)N1CCOCC1 , tested with PI3K β (Homo sapiens (Human)).
Output: < 0.1 µM

Input: Short answer please: IC50, PI3K β (Homo sapiens (Human)), entry Cc1cc2oc(N)nc2cc1-c1ccc2ncc(N3CC(N4CCOCC4)C3)nc2c1
Output: > 10 µM

Input: Tell me reported IC50 for Nc1nsc2cc(-c3ccc4ncc(C(=O)N5CCOCC5)n4c3)ccc12 , tested with PI3K β (Homo sapiens (Human)).
Output: > 10 µM

Input: Please tell me: IC50 of Nc1nsc2ccc(-c3ccc4nccc(-c5ccncc5)c4c3)cc12 , system PI3K β (Homo sapiens (Human))?
Output: > 10 µM

Input: Lab note: need IC50 with PI3K β (Homo sapiens (Human)) for entry CC(C)N1CCN(c2cnc3ccc(-c4ccc5oc(N)nc5c4)cc3n2)CC1 , please look it up.
Output: < 0.1 µM

Input: Any idea what IC50 came out for C[C@H]1CN(C2CN(C(=O)c3cnc4ccc(-c5ccc6oc(N)nc6c5)cn34)C2)CCN1 on PI3K β (Homo sapiens (Human))?
Output: < 10 µM

Input: Recorded IC50 for C[C@H]1CN(c2cnc3ccc(-c4ccc5nc(N)oc5c4)cc3n2)CCN1 with PI3K β (Homo sapiens (Human)), please?
Output: < 1 µM

Input: What value of IC50 on PI3K β (Homo sapiens (Human)) does CC1(C)CN(c2cnc3ccc(-c4ccc5oc(N)nc5c4)cc3n2)CCN1 have?
Output: < 1 µM

Input: Observed IC50 on PI3K β (Homo sapiens (Human)) for CCN(CC)CCNc1cnc2ccc(-c3ccc4oc(N)nc4c3)cc2n1 , please.
Output: < 1 µM

Input: Kindly state the measured IC50 obtained for Cc1nccn1C1CN(c2cnc3ccc(-c4ccc5oc(N)nc5c4)nc3n2)C1 with PI3K β (Homo sapiens (Human)).
Output: < 10 µM

Input: Which measured IC50 belongs to CN1CCN(C2CN(c3cnc4ccc(-c5ccc6oc(N)nc6c5)nc4c3)C2)CC1=O , tested on PI3K β (Homo sapiens (Human))?
Output: < 10 µM

----------
Let's go through some recorded IC50 values for UniProt P42345 together.
Sequence (P42345 1360-2549): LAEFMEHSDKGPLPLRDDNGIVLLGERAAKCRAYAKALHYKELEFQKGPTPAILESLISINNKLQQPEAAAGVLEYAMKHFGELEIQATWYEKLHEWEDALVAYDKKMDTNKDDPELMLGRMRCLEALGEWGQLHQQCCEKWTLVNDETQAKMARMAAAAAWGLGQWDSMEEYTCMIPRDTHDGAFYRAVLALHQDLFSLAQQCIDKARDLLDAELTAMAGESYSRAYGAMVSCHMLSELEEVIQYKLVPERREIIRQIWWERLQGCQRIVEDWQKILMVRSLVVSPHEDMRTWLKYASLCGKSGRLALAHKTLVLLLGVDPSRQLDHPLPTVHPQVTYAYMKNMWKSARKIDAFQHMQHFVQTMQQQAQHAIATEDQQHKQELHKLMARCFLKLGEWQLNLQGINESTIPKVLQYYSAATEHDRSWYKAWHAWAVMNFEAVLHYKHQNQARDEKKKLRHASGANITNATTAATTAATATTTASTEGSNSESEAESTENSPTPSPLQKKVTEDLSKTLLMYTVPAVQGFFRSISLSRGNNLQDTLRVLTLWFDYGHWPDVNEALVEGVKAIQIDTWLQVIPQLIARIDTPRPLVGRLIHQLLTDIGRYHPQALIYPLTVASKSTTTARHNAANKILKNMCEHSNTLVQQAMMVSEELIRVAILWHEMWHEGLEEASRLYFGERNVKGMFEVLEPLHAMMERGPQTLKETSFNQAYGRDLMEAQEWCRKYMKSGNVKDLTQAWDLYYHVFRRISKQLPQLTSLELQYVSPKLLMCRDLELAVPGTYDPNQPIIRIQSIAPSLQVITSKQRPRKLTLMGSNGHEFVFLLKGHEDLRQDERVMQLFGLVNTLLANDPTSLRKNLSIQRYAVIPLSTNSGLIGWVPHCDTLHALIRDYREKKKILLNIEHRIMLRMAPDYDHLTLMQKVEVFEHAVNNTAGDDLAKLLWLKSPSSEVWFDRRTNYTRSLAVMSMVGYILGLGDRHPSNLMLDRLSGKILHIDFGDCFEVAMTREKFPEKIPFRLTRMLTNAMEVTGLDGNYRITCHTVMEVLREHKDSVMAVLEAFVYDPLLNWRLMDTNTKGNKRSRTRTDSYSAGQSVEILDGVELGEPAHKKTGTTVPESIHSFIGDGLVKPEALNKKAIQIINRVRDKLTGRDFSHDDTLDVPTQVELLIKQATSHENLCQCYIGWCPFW

compound="Nc1nc2cc(-c3ccc4ncc(-c5ccnc(N6CCOCC6)c5)n4c3)ccc2o1 [Compound 52]" reported_metric=IC50 data_value="< 10 µM"
compound=C[C@H]1CN(C2CN(c3cnc4ccc(-c5ccc6oc(N)nc6c5)cc4n3)C2)CCN1 reported_metric=IC50 data_value="> 10 µM"
compound=CN1CC(C(=O)N2CCN(c3cnc4ccc(-c5ccc6oc(N)nc6c5)cc4n3)CC2)C1 reported_metric=IC50 data_value="> 10 µM"
compound=Nc1nc2cc(-c3ccc4ncc(N5CC(N6CC[C@@H](O)C6)C5)nc4c3)ccc2o1 reported_metric=IC50 data_value="< 1 µM"
compound=Nc1nc2cc(-c3ccc4ncc(N5CC(N6CCN(CC7CC7)CC6)C5)cc4n3)ccc2o1 reported_metric=IC50 data_value="> 10 µM"

Input: I'm curious: which IC50 was measured for Cn1cc(-c2cnc3ccc(-c4ccc5oc(N)nc5c4)cn23)cn1 [Compound 41] tested on UniProt P42345?
Output: < 10 µM

Input: Provide value of IC50 for this record tested with UniProt P42345: Nc1nc2cc(-c3ccc4ncc(N5CCOCC5)nc4c3)ccc2o1
Output: < 10 µM

Input: Recorded IC50 for CN1CCN(c2cnc3ccc(-c4ccc5oc(N)nc5c4)cc3n2)CC1 with UniProt P42345, please?
Output: > 10 µM

Input: API: value(readout=IC50, system=UniProt P42345) for record CN1CC2CN(c3cnc4ccc(-c5ccc6oc(N)nc6c5)nc4n3)CC2C1 (centres unmarked)
Output: > 10 µM

Input: Identify the measured IC50 of Cc1cc2oc(N)nc2cc1-c1ccc2ncc(N3CC(N4CCOCC4)C3)nc2c1 for UniProt P42345.
Output: > 10 µM

Input: What value of IC50 on UniProt P42345 does CN1CCN(C2CN(c3cnc4ccc(-c5ccc6oc(N)nc6c5)cc4n3)C2)CC1 have?
Output: < 10 µM
